Test system: Vero E6 cells
Conditions: African green monkey, 48 h, 8.33 µM
Measured cytotoxicity, %cell viability, listed per entry.
Respond numerically; units are % and should not be typed.

Sample records with cytotoxicity, %cell viability:
C[C@@H](NC(=O)c1ccccc1CCC(=O)NNC(=O)CC#N)c1cccc2ccccc12 [Compound 11]: 91.20
COC(=O)/C=C/C(=O)NNC(=O)CCc1ccc(NC(C)=O)cc1C(=O)N[C@H](C)c1cccc2ccccc12 [Compound 8]: 82.620
CC(=O)Nc1ccc(CCC(=O)NNC(=O)CCl)c(C(=O)N[C@H](C)c2cccc3ccccc23)c1 [Compound 10]: 79.780
CC(=O)Nc1ccc(C)c(C(=O)N[C@H](C)c2cccc3ccccc23)c1 [Compound 15]: 83.23
Cc1ccccc1C(=O)N[C@H](C)c1cccc2ccccc12 [Compound 14]: 99.10

Ask: Which cytotoxicity, %cell viability value belongs to C[C@@H](NC(=O)c1ccccc1CCC(=O)NNC(=O)CCl)c1cccc2ccccc12 [Compound 9] ?
Reply: 103.333

Ask: Which cytotoxicity, %cell viability value belongs to COC(=O)CCc1ccccc1C(=O)N[C@H](C)c1cccc2ccccc12 [Compound 3] ?
Reply: 97.36

Ask: Which cytotoxicity, %cell viability value belongs to C[C@@H](NC(=O)c1ccccc1CCC(=O)NN)c1cccc2ccccc12 [Compound 5] ?
Reply: 100.79

* * *

Measured viability at 48 h, 16.65 µM, listed per entry.
Assay: in vitro
Conditions: African green monkey, cytotoxicity, %cell viability
Respond numerically; units are % and should not be typed.

C[C@@H](NC(=O)c1ccccc1CCC(=O)NNC(=O)CCl)c1cccc2ccccc12: 91.4
COC(=O)CCc1ccccc1C(=O)N[C@H](C)c1cccc2ccccc12: 92
Cc1ccccc1C(=O)N[C@H](C)c1cccc2ccccc12: 95.7

// next entry
Ask: Which viability at 48 h, 16.65 µM value belongs to `C[C@@H](NC(=O)c1ccccc1CCC(=O)NN)c1cccc2ccccc12` ?
Reply: 94.8
